Source listed as paper PMC9331678.

assay: 24 h therapeutic monitoring and noncompartmental pharmacokinetics in chronic lymphocytic leukemia patients receiving IBR; settings: human, plasma, oral, 280 mg, AUCLST AUC to Last Nonzero Conc, subj=3 (280 mg IBR per day), steady state
property label: AUC (µM·h)
Kindly answer with a numeric value in µM·h, unit omitted.

The recorded AUC for Nc1ncnc2c1c(-c1ccc(Oc3ccccc3)cc1)nn2[C@@H]1CCCN(C(=O)C(O)CO)C1 (stereo partly shown) [Dihydrodiol Ibrutinib] is 1.8

* * *

test: 24 h therapeutic monitoring and noncompartmental pharmacokinetics in chronic lymphocytic leukemia patients receiving IBR; details: human, plasma, oral, 420 mg, t1/2, Patient 1, 420 mg IBR per day, steady state
property label: half-life (h)
Your answer is read as h, so omit the unit and give the number.

Recorded half-life (compound Nc1ncnc2c1c(-c1ccc(Oc3ccccc3)cc1)nn2[C@@H]1CCCN(C(=O)C(O)CO)C1 (stereo partly shown) [Dihydrodiol Ibrutinib] ): 10.1

* * *

experiment: 24 h therapeutic monitoring and noncompartmental pharmacokinetics in chronic lymphocytic leukemia patients receiving IBR; details: human, plasma, oral, 280 mg, AUCALL AUC All, subj=3 (280 mg IBR per day), steady state
property label: AUC (µM·h)
Just the number please, in µM·h, no unit attached.

The reported AUC of the compound Nc1ncnc2c1c(-c1ccc(Oc3ccccc3)cc1)nn2[C@@H]1CCCN(C(=O)C(O)CO)C1 (stereo partly shown) [Dihydrodiol Ibrutinib] was 1.8

* * *

test: 24 h therapeutic monitoring and noncompartmental pharmacokinetics in chronic lymphocytic leukemia patients receiving IBR; conditions: human, plasma, oral, 420 mg, tmax, Patient 1, 420 mg IBR per day, steady state
property label: Tmax
Please answer using a numeric value trailed by its unit.

Entry Nc1ncnc2c1c(-c1ccc(Oc3ccccc3)cc1)nn2[C@@H]1CCCN(C(=O)C(O)CO)C1 (stereo partly shown) [Dihydrodiol Ibrutinib] ; Tmax = 2 h

* * *

assay: 24 h therapeutic monitoring and noncompartmental pharmacokinetics in chronic lymphocytic leukemia patients receiving IBR; conditions: human, plasma, oral, 280 mg/day, Conc., subj=3 (280 mg IBR per day), 24 h postdose
property label: concentration at 24 h (nM)
Write it as a number; the unit nM goes unstated.

Recorded concentration at 24 h (molecule Nc1ncnc2c1c(-c1ccc(Oc3ccccc3)cc1)nn2[C@@H]1CCCN(C(=O)C(O)CO)C1 (stereo partly shown) [Dihydrodiol Ibrutinib] ): 10.1

* * *

test: 24 h therapeutic monitoring and noncompartmental pharmacokinetics in chronic lymphocytic leukemia patients receiving IBR; details: human, plasma, oral, 280 mg, CMAX Max Conc, subj=3 (280 mg IBR per day), steady state
property label: Cmax (nM)
Give the value in nM but do not write nM after it.

Lookup result for Nc1ncnc2c1c(-c1ccc(Oc3ccccc3)cc1)nn2[C@@H]1CCCN(C(=O)C(O)CO)C1 (stereo partly shown) [Dihydrodiol Ibrutinib] ; measured Cmax: 217

* * *

assay: 24 h therapeutic monitoring and noncompartmental pharmacokinetics in chronic lymphocytic leukemia patients receiving IBR; conditions: human, plasma, oral, 280 mg, AUCIFP AUC Infinity Pred, subj=3 (280 mg IBR per day), steady state
property label: AUC(0-inf) (µM·h)
Field format: number, assumed µM·h, no unit text.

// AUC(0-inf) value for Nc1ncnc2c1c(-c1ccc(Oc3ccccc3)cc1)nn2[C@@H]1CCCN(C(=O)C(O)CO)C1 (stereo partly shown) [Dihydrodiol Ibrutinib] : 1.88
